- Assay Explanation: Laboratory data of liver and kidney function before and after the switch
- Type: in vivo, human
- Test Settings: during the named PPI phase; 18 recipients on tacrolimus
Each entry below carries its recorded Aspartate aminotransferase, median (range).

COCCCOc1ccnc(C[S+]([O-])c2nc3ccccc3[nH]2)c1C (centres unmarked): 16 IU/L

Consider the record given below.
`CNCc1cc(-c2ccccc2F)n(S(=O)(=O)c2cccnc2)c1.O=C(O)/C=C/C(=O)O` yielded Aspartate aminotransferase, median (range) of 15 IU/L

* * *

- Assay Explanation: Whole blood trough concentration and C/D ratio of tacrolimus before and after switching PPI from rabeprazole to vonoprazan
- Format: in vivo, human
- Test Settings: CYP3A5 *1 noncarrier, n=13; rabeprazole to vonoprazan
Property Measured: ΔConcentration, median (ng/mL)
Form entry: value (ng/mL) — number only.

`C=CC[C@@H]1/C=C(\C)C[C@H](C)C[C@H](OC)[C@H]2O[C@@](O)(C(=O)C(=O)N3CCCC[C@H]3C(=O)O[C@H](/C(C)=C/[C@@H]3CC[C@@H](O)[C@H](OC)C3)[C@H](C)[C@@H](O)CC1=O)[C@H](C)C[C@@H]2OC` yielded ΔConcentration, median of 3.3

* * *

- Assay Explanation: Whole blood trough concentration and C/D ratio of tacrolimus before and after switching PPI from rabeprazole to vonoprazan
- Format: in vivo, human
- Test Settings: CYP3A5 *1 carrier, n=5; rabeprazole to vonoprazan
Property Measured: ΔConcentration, median (ng/mL)
Form entry: value (ng/mL) — number only.

C=CC[C@@H]1/C=C(\C)C[C@H](C)C[C@H](OC)[C@H]2O[C@@](O)(C(=O)C(=O)N3CCCC[C@H]3C(=O)O[C@H](/C(C)=C/[C@@H]3CC[C@@H](O)[C@H](OC)C3)[C@H](C)[C@@H](O)CC1=O)[C@H](C)C[C@@H]2OC [Tacrolimus] yielded ΔConcentration, median of 2.8
